Source listed as the supplement of paper PMC13380429.

Test system: Caco-2
Assay: cell viability relative to DMSO; higher = less toxic
Details: 72 h; 10000 nM
Below, each entry is listed with its recorded cell viability.
Quick note: give the figure in %, leave out the unit.

Nc1nccc(Oc2ccc(NC(=O)c3c[nH]cc(-c4ccc(F)cc4)c3=O)cc2F)c1Cl [metatinib]
80

Prompt: Give recorded cell viability. Cc1c(N)nc([C@H](CC(N)=O)NC[C@H](N)C(N)=O)nc1C(=O)N[C@H](C(=O)N[C@H](C)[C@@H](O)[C@H](C)C(=O)N[C@H](C(=O)NCCc1nc(-c2nc(C(=O)NCCC[S+](C)C)cs2)cs1)[C@@H](C)O)[C@@H](OC1OC(CO)C(O)C(O)C1OC1OC(CO)C(O)C(OC(N)=O)C1O)c1cnc[nH]1 (some centres not stated) [bleomycin]
Completion: 76.8
